experiment: yeast display, Sf9 membrane polyspecificity reagent, FACS + sequencing; frameworks hold sequencing errors
assay_metric: polyreactivity (PSR sort gate)

Solved cases (4 shown):
{"columns": ["sequence_input", "polyreactivity (PSR sort gate)"],
 "data": [
  ["QVQLVESGGGLVQAGGSLRLSCAASGRILVSYAMGWYRQAPGKERELVAAISRSGGSTYYADSVKGRFTISRDNAKNTVYLQMNSLKPEDTAVYYCNVYRFSRYDYWGQGTQVTVSS", "high polyreactivity"],
  ["QVQLVESGGGLVQAGGSLRLSCAASGSTLGYYAMGWYRQAPGKERELVAAITSSDGGTYYADSVKGRFTISRDNAKNTVYLQMNSLKPEDTAVYYCAKRRYTSAFGSWYAYDYWGQGTQVNVSS", "high polyreactivity"],
  ["QVQLVESGGGLVQAGGSLRLSCAASGSTIGLNARGWYRQAPGKERELVAAITRSDITNYADSVKGRFTISRDNAKNTVYLQMNRLKPEDTEVYYCAAESPLYWVDDFESGWRYYYSGQGTQVTVSS", "low polyreactivity"],
  ["QVQLVESGGGLVQAGGSLRLSCAASGIIFYDYAMGWYRPAPGKERELVAAINYSGGSTYYADSVKGRFTISRDNAKNTVYLQMNSLKPEDTAVYYCAADNAVWEYDYWGQGTQVTVSS", "low polyreactivity"]
]}

Lab note: QVQLVESGGGLVQAGGSLRLSCAPSGSTFAYYAMGWYRQAPGKEREFVAAISTRGGSTYYADSVKGRFTISRDNAKNTVYFQMNSLKPEDTAVYYCAAGYFIYSWRIRFDYLGQGTQVTVSS gave polyreactivity (PSR sort gate) of high polyreactivity

====

assay: yeast display, Sf9 membrane polyspecificity reagent, FACS + sequencing; frameworks hold sequencing errors
assay_metric: polyreactivity (PSR sort gate)

{"columns": ["sequence_input", "polyreactivity (PSR sort gate)"],
 "data": [
  ["QVQLVESGGGLVQAGGSLRLSCAASGSTFYYYTMGWYRQAPGKERELVATITYRSGNTYYADSVKGRFTISRDNAKNTVYLQMNSLKPEDTAVYYCAALRRVLPYKRYDYWGQGTQVTVSS", "high polyreactivity"],
  ["QVQLVESGVGLVQAGGSLRLSSADSGRTSPGNAMGWYRQAPGKETELVAAINVSGGSTYYADSVKGRFTISRDNAKNTVYLQMNSLKPEDTAVYDCATDTGYPYSYDLYDSYYWGQGTQVTVSS", "low polyreactivity"],
  ["QVQLVESGGGLVQAGGSLRLSCAASGSTFHVYAMGWYRQAPGKERELVAGITSSGYSTYYADSVKGRFTISRDNAKNTVYLKMNSLKPEETAVYYCNADIRGPYYYHRYDYWGQGTLVTVSS", "low polyreactivity"],
  ["QVQLVESGGGLVQAGGSLRLSCAASGIIFYLYAMGWYRQAPGKERELVAAISWRGGSTYYADSVKGRFTISRDNAKNTVYLQMNSLKPEDTAVYYCNKTQPIDLYGYWGQGTQVTVSS", "high polyreactivity"]
]}

Switching to the query record.
Lab note: QVQLVESGGGLVQAGGSLRLSCAASGSTFGGNAMGWYRQAPGKERELVAAITVGGDSPYYADSVKGRYTISRDNAKNTVYLQMNSLKPEDTADYYCAARHYWWYDYWGQGTQVTVSS gave polyreactivity (PSR sort gate) of low polyreactivity

====

test: yeast display, Sf9 membrane polyspecificity reagent, FACS + sequencing; frameworks hold sequencing errors
assay_metric: polyreactivity (PSR sort gate)

{"columns": ["sequence_input", "assay_metric", "experimental_value"],
 "data": [
  ["QVQLVESGGGLVQAGGSLRLSCAASGRIFPPYDMGWYRQAPGKETELVAAISYRGGSTYYADSVKGRFTISRDNAKNTVYLQMNSLKPEVTAVYYCNVGSRGGWDASDYDYWGQCTQVTVSS", "polyreactivity (PSR sort gate)", "high polyreactivity"],
  ["QVQLVESGGGLVQAGGSLRLSCAASGRTFIKYAMGWYRQAPGKERELVAAITYSAGSTSYADSVKGRFTISRDNAKNTVYLQMNSLKPEDTAVYYCNAVPTWWTQEVGSYKSLGYWGQGTQVTVSS", "polyreactivity (PSR sort gate)", "low polyreactivity"],
  ["QVHLVESGGGLVQAGGSLRLSCASSASIINVYAMGWYRQAPGKEREFVADINYSGGSTYADSVKGRFTISRDNAKNTVYLQMYSVKPEDTAVYYCADVYGYLYYELYYWGQGTQVTVSS", "polyreactivity (PSR sort gate)", "low polyreactivity"],
  ["QVQLVESGGGLVQAGGSLRLSCAASGSIFSYKAMGWYRQAPGKERELVAAISWSGGRTYYADSVKGRFTISRDNAKNTVYLQMNSLKPEDTAVYYCNAQYRLYSEFNYWGQGTQVTVSS", "polyreactivity (PSR sort gate)", "high polyreactivity"]
]}

Lab note: QVQLVESGGGLVHAGGSHRLSCAATGRIFDANARGGYRQAPGKERELVAVISSRGGSTYYADSVKGRFTISRDNAKNTVYLQMNSLKPEDTAVYYCAKGFSVAGYDYWGQGTQVTVSS gave polyreactivity (PSR sort gate) of low polyreactivity

Lab note: QVQLVESGGGLVQAGGSLRLSCAASGFTLGYNVMGWYRQAPGKERELVATICWNGARTYYADSVKGRFTISRDTAKNTVYLQMNSLKPEDTAVYYCAARRYYRGEYDYWGQGTQVTVSS gave polyreactivity (PSR sort gate) of low polyreactivity

Lab note: QVQLVESGGGLVQAGGSLRLSCAASGNIFSAYAMGWYRQAPGTERELVATITSGGITYYADSVKGRFTISRDNAKNSVYLQKNSLKPEDTAVYYCNADHHGQAEYGYWGHGTQVTVSS gave polyreactivity (PSR sort gate) of low polyreactivity

Lab note: QVQLVESGVGLVQAGGSLRLSCAASGSTFDVYDMGWYRQAPGKERELVASISWDGDRTYYADSVKGRFTISRDNAKNTVYLQMKSLKPEDTAVYYCAATLRPYSSFPNRYGYWGQGTQVSVSS gave polyreactivity (PSR sort gate) of low polyreactivity

====

test: yeast display, Sf9 membrane polyspecificity reagent, FACS + sequencing; frameworks hold sequencing errors
assay_metric: polyreactivity (PSR sort gate)

Solved cases (10 shown):
{"columns": ["sequence_input", "experimental_value"],
 "data": [
  ["QVQLVESGGGLVQAGGSLRLSCAASGIIFLWYAMGWYRQAPGKERELVAAITSGGSTYYADSVKGRFTISRDNAKNTVYLQMNSLKPEDTAVYYCAAVNGWRRVKRFDYWGQGTQVTVSS", "high polyreactivity"],
  ["QVQLVESGGGLVQAGGSLRLSCAGSGNIFVFYVMGWYRQAAGKERELVASISSTGNTYYADSVKGRFTISRDNAKNTVYLQMNSLKPEDTAVYYGAADSHQNVSGWLRWPRMDYWGQGTQVTVSS", "low polyreactivity"],
  ["QVQLVESGGGLVQAGGSLRLSCAASGSIFVYNAMGWYRHAPGTERELVAAISRRGGSTYYADSVKGRFTISRDNAKNTVYLQMNSLKPEDTAVYYCAAFASATRYDYWGQGTQVTVSS", "high polyreactivity"],
  ["QVQLVESWGGLVQAGGSLRLSCAASGFTFTRNAMGWYRQAPGKERELVAAISKSGGRTYYADSVKGRFTISRDNAKYNVYLQMNSLKPEDTAVYYCAVVPRPFGLGSDYDYWGQGTQVTVSS", "high polyreactivity"],
  ["QVQLVESGGGLVQAGGSLRLSCAAYGSTFSTYAMGWYRQAPGKEREMVAAITLSSGRTTYADSVKGRFTISRDNAKNTVYLQMNSLKPEDTAVYYCNAYYGAAFTYWDYYWGQGTQVTVSS", "low polyreactivity"],
  ["QVQLVESGGGLVQAGGSLRLSCAASGSIFYFNAMGWYRQAPGKERELVAAITYSGGSTYYADSVKGRFTISRDNAKNTVYLQMNSLKPEDTAVYYCNAQVYYSVRGYPYGYYRNDYWGQGTQVTVSS", "low polyreactivity"],
  ["QVQLVESGVGLVQAGGSLRLSCAASGITFVDYGMGWYRQAPGKERELVSAISRSGGSTYYADSVKGRFTISRDNAKNTVYLQMNSLKPEDTAVYYCATVLSRVRNSDKYWGQVTQVTVSS", "high polyreactivity"],
  ["QVHLVESGGGLVQAGGSLRLSSADTGYTFVNYARGWNRQAPGKERELVAAISDRGGSMYYADAVKGRFTISRDNAKNTVDLQMNSLKPEETAVYYCAAQHTGKYTGTRYFYWGQGTQVTVSS", "high polyreactivity"],
  ["QVQLVESGGGLVQAGGSLRLSCAASGFTFRYYAMGWYRQAPGKERELVAAIDWSGGSTYYADSVKGRFTISRDNAKNTVYLQMNSLKPEDTAVYYCNAVLVPREYYSWGQGTQVTVSS", "low polyreactivity"],
  ["QVQLVESGGGLVQAGGSLRLSCAASGRTFYRSALVWYRQAPGKERELVAAISYNGGSTFYADSVKGRFTISRDNAKYTVYLQMNSLKPEDTAVYYCAAGPRGTGKYYWGQGTQVTVSS", "high polyreactivity"]
]}

Switching to the query record.
Lab note: PVQLEESGGGLVQAGGSLRLSCPASGTSAYYARGWYRQAPGKERALVAGISIGGSTNYADSVKGRFTITRDNAKNTVYVQMTSLKPEDTAVAYCSVDGYVAFSPDRNNYWGQGTQVTVSS gave polyreactivity (PSR sort gate) of low polyreactivity
